- testedSystem: IKKb (Homo sapiens (Human), UniProt O14920)
- Sequence (O14920 whole entry): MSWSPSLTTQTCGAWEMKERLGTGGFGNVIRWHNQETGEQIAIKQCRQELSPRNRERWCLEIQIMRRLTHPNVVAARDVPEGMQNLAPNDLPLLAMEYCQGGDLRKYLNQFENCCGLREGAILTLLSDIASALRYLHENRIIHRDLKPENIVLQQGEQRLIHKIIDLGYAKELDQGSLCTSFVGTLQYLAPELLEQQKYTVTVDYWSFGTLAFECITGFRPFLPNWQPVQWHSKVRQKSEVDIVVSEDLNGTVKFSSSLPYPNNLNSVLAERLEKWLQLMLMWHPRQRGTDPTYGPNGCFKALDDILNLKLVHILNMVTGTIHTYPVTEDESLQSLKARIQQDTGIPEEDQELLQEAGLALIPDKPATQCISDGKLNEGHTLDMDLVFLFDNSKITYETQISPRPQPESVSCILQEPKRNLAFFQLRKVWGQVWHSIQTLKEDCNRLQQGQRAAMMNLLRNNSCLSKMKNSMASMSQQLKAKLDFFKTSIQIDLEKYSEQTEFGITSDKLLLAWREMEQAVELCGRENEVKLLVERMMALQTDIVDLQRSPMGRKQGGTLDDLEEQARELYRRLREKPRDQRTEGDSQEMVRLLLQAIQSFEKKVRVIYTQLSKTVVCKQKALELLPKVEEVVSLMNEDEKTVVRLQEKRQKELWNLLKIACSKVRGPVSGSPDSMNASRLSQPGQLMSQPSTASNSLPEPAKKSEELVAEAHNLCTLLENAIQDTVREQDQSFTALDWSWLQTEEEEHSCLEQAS
- experimentDescription: KiNativ assay
- Assay type: binding
- conditionSummary: H929 live cell, read-out: inhibition (10 μM)
- Experimental: Biochemical IC50s of the compounds of the present disclosure against various kinases were measured in a KiNativ assay. Compounds were screened in duplicate at 10 μM in H929 live cell. IC50 was measured via Mass spectroscopy (MS).
Reported inhibition at 10 µM values follow for various molecules
Provide only the numeric value, understood in %.

Some entries whose results are on file:
1. Nc1ncc(-c2cccc3ncsc23)cc1-c1ccc2c(c1)CCNC2=O
-3.3
2. CN(C1CC1)S(=O)(=O)c1ccc(-c2cnc(N)c(-c3ccc4c(c3)CCNC4=O)c2)c(F)c1
6.8
3. Nc1ncc(-c2ccc(NS(=O)(=O)C3CC3)cc2F)cc1-c1ccc2c(c1)CCNC2=O
-19.5
4. Nc1ncc(-c2cccc([N+](=O)[O-])c2F)cc1-c1ccc2c(c1)CCNC2=O
-15

// lookup inhibition at 10 µM for COc1cc(NS(=O)(=O)C2CC2)ccc1-c1cnc(N)c(-c2ccc3c(c2)CCNC3=O)c1 -26.2

// lookup inhibition at 10 µM for Nc1ncc(-c2ccc(NS(=O)(=O)C3CC3)cc2OC2CCCCC2)cc1-c1ccc2c(c1)CCNC2=O -36
